Biological target: α4β3γ2 GABAA receptor isoform (Homo sapiens, UniProt P18507+P28472+P48169)
Construct: expressed in transfected cells; host or cells: HEK-293T, transient transfection
Sequence (P48169 36-554): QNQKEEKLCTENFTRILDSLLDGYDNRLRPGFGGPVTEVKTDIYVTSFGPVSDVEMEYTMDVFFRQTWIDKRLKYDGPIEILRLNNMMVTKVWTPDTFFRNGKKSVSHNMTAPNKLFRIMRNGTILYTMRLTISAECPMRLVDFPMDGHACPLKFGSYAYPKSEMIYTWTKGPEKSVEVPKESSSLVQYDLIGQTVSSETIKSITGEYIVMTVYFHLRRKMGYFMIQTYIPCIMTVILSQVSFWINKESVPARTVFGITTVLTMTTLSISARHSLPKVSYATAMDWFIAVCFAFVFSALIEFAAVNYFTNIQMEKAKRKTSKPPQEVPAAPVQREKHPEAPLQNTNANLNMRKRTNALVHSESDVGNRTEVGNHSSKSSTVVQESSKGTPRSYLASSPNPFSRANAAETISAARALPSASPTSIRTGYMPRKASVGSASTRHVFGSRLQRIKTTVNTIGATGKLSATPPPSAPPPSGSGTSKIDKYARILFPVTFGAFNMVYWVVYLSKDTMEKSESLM
Sequence (P28472 26-473): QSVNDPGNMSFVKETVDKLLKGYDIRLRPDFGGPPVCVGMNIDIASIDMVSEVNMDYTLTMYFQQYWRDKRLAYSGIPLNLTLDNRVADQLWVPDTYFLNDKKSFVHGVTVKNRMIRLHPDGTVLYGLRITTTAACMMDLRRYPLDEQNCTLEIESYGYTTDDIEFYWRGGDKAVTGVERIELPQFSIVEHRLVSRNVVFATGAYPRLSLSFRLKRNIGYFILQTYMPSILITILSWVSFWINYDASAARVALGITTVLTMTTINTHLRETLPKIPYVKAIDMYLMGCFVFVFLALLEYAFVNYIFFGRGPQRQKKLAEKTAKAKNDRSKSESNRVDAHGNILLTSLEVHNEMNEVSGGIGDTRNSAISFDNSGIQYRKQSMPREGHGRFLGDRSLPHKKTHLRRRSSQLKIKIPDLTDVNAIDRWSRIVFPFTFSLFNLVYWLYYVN
Sequence (P18507 40-475): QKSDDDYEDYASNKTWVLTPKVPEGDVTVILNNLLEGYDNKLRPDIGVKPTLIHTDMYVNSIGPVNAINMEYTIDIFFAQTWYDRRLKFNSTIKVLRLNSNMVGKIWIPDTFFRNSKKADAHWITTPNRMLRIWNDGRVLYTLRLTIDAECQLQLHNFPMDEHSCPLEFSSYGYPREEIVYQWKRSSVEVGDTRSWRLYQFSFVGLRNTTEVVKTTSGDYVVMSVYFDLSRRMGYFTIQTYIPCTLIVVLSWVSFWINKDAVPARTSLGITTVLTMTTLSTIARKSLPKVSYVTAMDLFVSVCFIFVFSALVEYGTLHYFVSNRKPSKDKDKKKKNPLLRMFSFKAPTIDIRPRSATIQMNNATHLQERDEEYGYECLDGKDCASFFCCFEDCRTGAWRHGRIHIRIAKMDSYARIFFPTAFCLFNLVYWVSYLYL
Experiment: Whole-cell patch clamp, transfected HEK-293T cells
Assay type: cell-based, rat or human
Settings: read-out: IC50, receptors containing the α4 subunit
Protocol: The addition of GABA to […] activates the recombinant expressed GABAA receptors, creating an ion movement through the ion channel in the GABAA receptor. The electrical current generated by the movement of chloride ions into the cells can be quantified. HEK-293T cells were transiently transfected with rat or human GABAA receptor subunits. Whole-cell patch clamp recording was performed at −50 mV unless otherwise indicated. […]
pIC50: −log10 of the molar value.

- Molecular String: "CCCCN(CCCC)c1cc(C(=O)O)cc(S(N)(=O)=O)c1Oc1ccccc1"
  pIC50: "4.52 to 5.00"

---

target: α4β3γ2 GABAA receptor isoform (Homo sapiens, UniProt P18507+P28472+P48169); assay: Whole-cell patch clamp, transfected HEK-293T cells; conditions: FIG. 41C; read-out: EC50 in α4 containing GABAA receptor isoforms

- Molecule: "CCCCN(CCCC)c1cc(C(=O)O)cc(S(N)(=O)=O)c1Oc1ccccc1 [NTP-2014]"
  Unit Text: "µM"
  EC50: 20.2

---

# Lookup of reported remaining activity at 10 µM keyed by entry
molecular target: Na+K+Cl− co-transporter (Rattus norvegicus, UniProt E9PTX9); construct: endogenous in cells; host or cells: A7r5 cells; experiment: Na+K+Cl− cotransporter assay, 86Rb uptake in A7r5 cells; type: cell-based; conditions: 10 minutes at 37° C., read-out: % of Control Value
Sequence (E9PTX9 1-1203): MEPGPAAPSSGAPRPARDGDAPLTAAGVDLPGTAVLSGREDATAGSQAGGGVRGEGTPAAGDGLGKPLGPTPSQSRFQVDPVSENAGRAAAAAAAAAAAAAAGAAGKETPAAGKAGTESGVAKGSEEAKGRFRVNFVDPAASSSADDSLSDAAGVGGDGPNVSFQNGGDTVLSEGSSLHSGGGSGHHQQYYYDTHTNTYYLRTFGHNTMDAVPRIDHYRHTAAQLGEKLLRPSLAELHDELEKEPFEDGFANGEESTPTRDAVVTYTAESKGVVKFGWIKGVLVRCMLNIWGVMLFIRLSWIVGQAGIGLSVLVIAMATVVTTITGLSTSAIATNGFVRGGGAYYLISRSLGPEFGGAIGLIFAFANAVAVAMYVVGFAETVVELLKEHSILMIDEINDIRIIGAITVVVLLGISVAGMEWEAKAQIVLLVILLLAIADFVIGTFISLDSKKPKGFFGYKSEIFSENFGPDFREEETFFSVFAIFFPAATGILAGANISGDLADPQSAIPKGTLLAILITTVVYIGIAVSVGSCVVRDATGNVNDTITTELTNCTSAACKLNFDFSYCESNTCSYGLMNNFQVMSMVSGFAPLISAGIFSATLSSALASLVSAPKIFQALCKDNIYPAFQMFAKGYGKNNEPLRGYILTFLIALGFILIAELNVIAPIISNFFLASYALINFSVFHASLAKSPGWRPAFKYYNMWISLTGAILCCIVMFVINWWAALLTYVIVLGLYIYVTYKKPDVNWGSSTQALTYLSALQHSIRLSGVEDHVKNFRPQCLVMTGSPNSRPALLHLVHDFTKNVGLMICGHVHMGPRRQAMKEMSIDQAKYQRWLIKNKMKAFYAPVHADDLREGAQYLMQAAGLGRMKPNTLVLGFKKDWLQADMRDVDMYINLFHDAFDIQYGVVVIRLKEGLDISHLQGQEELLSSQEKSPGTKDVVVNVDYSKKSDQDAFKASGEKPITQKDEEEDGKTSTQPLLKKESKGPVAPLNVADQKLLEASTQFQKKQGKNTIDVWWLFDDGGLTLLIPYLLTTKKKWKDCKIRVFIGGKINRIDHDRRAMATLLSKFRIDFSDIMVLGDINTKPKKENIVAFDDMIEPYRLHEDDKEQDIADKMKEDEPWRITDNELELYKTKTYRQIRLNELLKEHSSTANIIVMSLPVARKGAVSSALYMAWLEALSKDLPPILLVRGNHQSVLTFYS

- Compound: "CCCCN(CCCC)c1cc(C(=O)O)cc(S(N)(=O)=O)c1Oc1ccccc1 [NTP-2014]"
  remaining activity at 10 µM: "104%"
- Compound: "CCCCNc1cc(C(=O)N(Cc2ccccc2)Cc2ccccc2)cc(S(N)(=O)=O)c1Oc1ccccc1 [NTP-2008]"
  remaining activity at 10 µM: "82.8%"
- Compound: "CCCCNc1cc(C(=O)O)cc(S(N)(=O)=O)c1Oc1ccccc1 [Bumetanide, reference compound]"
  remaining activity at 10 µM: "24%"
- Compound: "CCCCNc1cc(C(=O)OCC(=O)N(CC)CC)cc(S(N)(=O)=O)c1Oc1ccccc1 [NTP-2006]"
  remaining activity at 10 µM: "49.6%"
- Compound: "CCCCNc1cc(C(=O)NCCCN(C)C)cc(S(N)(=O)=O)c1Oc1ccccc1 [NTP-2025]"
  remaining activity at 10 µM: "127%"
- Compound: "CCCCNc1cc(C(=O)N2CCCC2)cc(S(N)(=O)=O)c1Oc1ccccc1 [NTP-2022]"
  remaining activity at 10 µM: "92.7%"
- Compound: "CCCCNc1cc(C(=O)OCOC(=O)C(C)(C)C)cc(S(N)(=O)=O)c1Oc1ccccc1 [NTP-2012]"
  remaining activity at 10 µM: "65.5%"
- Compound: "CCCCNc1cc(C(=O)OCC(=O)N(C)C)cc(S(N)(=O)=O)c1Oc1ccccc1 [NTP-2011]"
  remaining activity at 10 µM: "87.4%"
- Compound: "CCCCNc1cc(C(=O)N(CC)CC)cc(S(N)(=O)=O)c1Oc1ccccc1 [NTP-2007]"
  remaining activity at 10 µM: "70.4%"
